- Test system: Bacteroides thetiotaomicron ATCC 29741
- protocol summary: Antimicrobial susceptibility, broth microdilution MIC (CLSI), QC strain
- Assay type: cell-based
- measurement context: Bacteroides, ATCC 29741 / ATCC 297415, read-out: MIC, QC ATCC 297415
quantity measured: MIC (µg/mL)
Return type: number; implicit unit µg/mL.

compound="CO/N=C(\\C(=O)N[C@@H]1C(=O)N2C(C(=O)O)=CCS[C@H]12)c1csc(N)n1 [CTZ, ceftizoxime]" quantity_measured=MIC observed_measurement=16
compound="C[C@@H](O)[C@H]1C(=O)N2C(C(=O)O)=C(S[C@@H]3CN[C@H](C(=O)N(C)C)C3)[C@H](C)[C@H]12 [MEM, meropenem]" quantity_measured=MIC observed_measurement=0.5
compound="COc1c(N2C[C@@H]3CCCN[C@@H]3C2)c(F)cc2c(=O)c(C(=O)O)cn(C3CC3)c12 [MXF, moxifloxacin]" quantity_measured=MIC observed_measurement=8
compound="O=C(N[C@H](CO)[C@H](O)c1ccc([N+](=O)[O-])cc1)C(Cl)Cl [CHL, chloramphenicol]" quantity_measured=MIC observed_measurement=8

Now consider the entry below.
Q. # get_value(readout='MIC', item= Cc1ncc([N+](=O)[O-])n1CCO [MTZ, metronidazole] )
A. 2
